These entries and their values trace back to patent US12686673B2.

Target: HER2 (A775_G776insYVMA) expressing Ba/F3 stable cell line (Homo sapiens, UniProt P04626, DUP772-775, cells depend on it)
Sequence (P04626 with tags, fused parts or gaps DUP772-775): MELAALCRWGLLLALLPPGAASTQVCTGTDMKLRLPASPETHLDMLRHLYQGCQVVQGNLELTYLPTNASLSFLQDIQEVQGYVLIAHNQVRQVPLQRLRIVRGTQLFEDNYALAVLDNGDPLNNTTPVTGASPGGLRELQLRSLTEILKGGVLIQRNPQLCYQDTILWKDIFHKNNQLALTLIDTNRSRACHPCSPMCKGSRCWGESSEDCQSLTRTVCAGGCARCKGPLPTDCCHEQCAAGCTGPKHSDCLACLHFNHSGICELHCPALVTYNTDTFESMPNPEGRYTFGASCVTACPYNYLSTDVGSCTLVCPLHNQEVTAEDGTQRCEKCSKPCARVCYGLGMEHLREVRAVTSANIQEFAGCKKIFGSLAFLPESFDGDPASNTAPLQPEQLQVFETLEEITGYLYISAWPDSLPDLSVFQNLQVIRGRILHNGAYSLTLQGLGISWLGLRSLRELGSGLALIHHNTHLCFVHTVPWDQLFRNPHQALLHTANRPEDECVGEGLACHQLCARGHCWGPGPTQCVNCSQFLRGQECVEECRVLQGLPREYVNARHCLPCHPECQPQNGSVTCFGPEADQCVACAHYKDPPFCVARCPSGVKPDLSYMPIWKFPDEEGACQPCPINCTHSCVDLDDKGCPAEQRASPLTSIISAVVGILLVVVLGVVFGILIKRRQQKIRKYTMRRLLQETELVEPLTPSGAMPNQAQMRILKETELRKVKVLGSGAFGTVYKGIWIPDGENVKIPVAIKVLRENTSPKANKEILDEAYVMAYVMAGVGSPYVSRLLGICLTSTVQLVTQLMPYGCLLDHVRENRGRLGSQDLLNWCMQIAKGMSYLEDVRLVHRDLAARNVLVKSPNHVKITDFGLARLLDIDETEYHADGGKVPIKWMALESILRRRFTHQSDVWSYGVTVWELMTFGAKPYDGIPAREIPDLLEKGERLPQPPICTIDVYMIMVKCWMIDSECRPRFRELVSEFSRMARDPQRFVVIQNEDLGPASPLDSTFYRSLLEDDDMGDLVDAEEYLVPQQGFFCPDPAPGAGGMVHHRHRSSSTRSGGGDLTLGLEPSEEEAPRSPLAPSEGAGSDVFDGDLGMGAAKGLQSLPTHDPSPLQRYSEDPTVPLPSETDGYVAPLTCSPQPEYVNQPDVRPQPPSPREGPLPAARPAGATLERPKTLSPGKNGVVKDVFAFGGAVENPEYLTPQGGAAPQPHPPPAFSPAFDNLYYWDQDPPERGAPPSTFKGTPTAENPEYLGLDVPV
Test: Cellular proliferation (Alamar Blue) assay, HER2 A775_G776insYVMA Ba/F3
Format: cell-based
Settings: 72 hr, read-out: YVMA IC50
Counter-ions that a name gives are not always drawn.
measure: GI50

Sample records with GI50:
1) C=CC(=O)Nc1cccc(Nc2nc(Nc3cnn(C)c3)ncc2C(C)N(Cc2ccccc2)C(C)=O)c1 (stereo not drawn) [Compound 47] | > 10 µM
2) C=CC(=O)Nc1cccc(Oc2nc(Nc3cnn(C)c3)cnc2C)c1 [Compound 158] | > 10 µM

Next:
Task: Output measured GI50 for this item: C=CC(=O)Nc1cccc(Nc2nc(Nc3cnn(C)c3)ncc2-c2ccc(OC)nc2)c1 [Compound 118, trifluoroacetate]
Output: 0.057 µM
